system: cloned human NR1/NR2B ion channels (Homo sapiens (Human), UniProt Q05586+Q13224)
Sequence (Q13224 27-1484, other chains not shown): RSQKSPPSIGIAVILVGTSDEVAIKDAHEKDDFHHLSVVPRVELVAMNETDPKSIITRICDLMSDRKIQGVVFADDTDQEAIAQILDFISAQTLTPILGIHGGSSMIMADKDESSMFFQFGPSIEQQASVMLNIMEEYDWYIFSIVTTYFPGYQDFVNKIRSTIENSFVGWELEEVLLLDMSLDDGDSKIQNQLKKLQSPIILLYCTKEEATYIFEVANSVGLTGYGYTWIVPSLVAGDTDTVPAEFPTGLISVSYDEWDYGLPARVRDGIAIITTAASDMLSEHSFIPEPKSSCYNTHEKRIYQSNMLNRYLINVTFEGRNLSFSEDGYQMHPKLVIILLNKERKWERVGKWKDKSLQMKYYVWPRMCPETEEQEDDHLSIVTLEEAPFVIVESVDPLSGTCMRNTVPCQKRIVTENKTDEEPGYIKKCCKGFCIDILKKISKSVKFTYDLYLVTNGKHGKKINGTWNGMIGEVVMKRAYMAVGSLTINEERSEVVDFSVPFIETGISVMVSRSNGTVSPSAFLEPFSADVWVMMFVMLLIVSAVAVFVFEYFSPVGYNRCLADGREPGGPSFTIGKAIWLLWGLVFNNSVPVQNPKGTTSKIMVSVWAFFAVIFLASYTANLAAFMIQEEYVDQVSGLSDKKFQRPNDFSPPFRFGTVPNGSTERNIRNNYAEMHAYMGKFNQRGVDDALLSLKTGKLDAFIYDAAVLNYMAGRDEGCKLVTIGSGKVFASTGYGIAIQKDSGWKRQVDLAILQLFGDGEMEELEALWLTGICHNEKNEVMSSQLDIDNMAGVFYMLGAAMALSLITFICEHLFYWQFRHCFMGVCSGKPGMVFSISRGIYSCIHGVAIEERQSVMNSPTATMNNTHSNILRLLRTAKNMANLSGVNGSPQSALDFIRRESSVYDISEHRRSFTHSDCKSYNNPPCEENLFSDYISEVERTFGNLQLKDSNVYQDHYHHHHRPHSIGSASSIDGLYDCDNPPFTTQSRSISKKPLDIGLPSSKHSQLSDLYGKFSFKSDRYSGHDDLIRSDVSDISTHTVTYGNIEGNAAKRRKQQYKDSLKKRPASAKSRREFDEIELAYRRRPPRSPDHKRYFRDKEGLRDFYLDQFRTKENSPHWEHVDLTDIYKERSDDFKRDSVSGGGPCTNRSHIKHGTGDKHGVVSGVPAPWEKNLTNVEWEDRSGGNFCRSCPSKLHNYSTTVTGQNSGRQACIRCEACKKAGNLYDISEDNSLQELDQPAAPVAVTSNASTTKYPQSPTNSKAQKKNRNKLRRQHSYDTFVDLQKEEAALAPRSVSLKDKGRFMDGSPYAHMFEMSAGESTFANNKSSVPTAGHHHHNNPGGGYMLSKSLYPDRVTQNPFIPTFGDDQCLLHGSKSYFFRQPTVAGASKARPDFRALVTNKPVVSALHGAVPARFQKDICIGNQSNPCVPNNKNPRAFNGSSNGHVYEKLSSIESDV
assay.notes: HNR2BC: effects of test articles on cloned human NR1/NR2B ion channels expressed in mammalian cells (FLIPR calcium flux)
Assay type: cell-based
settings: cloned human NR1/NR2B, Table 5
pIC50: −log10 of the molar value. Where a name gives a salt, the structure may show the parent alone.
Criterion: pIC50 meeting or surpassing 7. Met: yes. Not met: no.

Q: Decide: is the reported value of pIC50 for O=C(Cn1ccc2ncc(-c3cccc(C(F)(F)F)c3F)cc21)N1CC(F)(F)C1 [Example 255, trifluoroacetate salt] equal to or greater than 7?
A: no

Q: Decide: is the reported value of pIC50 for O=C(Cn1cc(Cl)c2ncc(-c3ccc(F)cc3)cc21)N1CC(F)(F)C1 equal to or greater than 7?
A: yes

Q: Decide: is the reported value of pIC50 for O=C(Cn1ccc2ncc(-c3cccc(C(F)(F)F)n3)cc21)NC1CC1 equal to or greater than 7?
A: no

Q: Decide: is the reported value of pIC50 for Cc1cccc(-c2cnc3cc(C)n(CC(=O)N4CCCC4)c3c2)c1 equal to or greater than 7?
A: no

Q: Decide: is the reported value of pIC50 for Cc1cc(-c2cnc3c(C)cn(CC(=O)N4CCC4)c3c2)ccc1F [Example 169, trifluoroacetate salt] equal to or greater than 7?
A: no

Q: Decide: is the reported value of pIC50 for Cc1cccc(-c2cnc3c(Cl)cn(CC(=O)N4CC(F)(F)C4)c3c2)c1 equal to or greater than 7?
A: no

Q: Decide: is the reported value of pIC50 for O=C(Cn1ccc2ncc(-c3cccs3)cc21)N1CC(F)C1 equal to or greater than 7?
A: no

Q: Decide: is the reported value of pIC50 for O=C(Cn1ccc2ncc(-c3ccc(F)cc3)cc21)c1ccccc1 equal to or greater than 7?
A: no

Q: Decide: is the reported value of pIC50 for N#CC1CN(C(=O)Cn2ccc3ncc(-c4ccc(F)cc4)cc32)C1 equal to or greater than 7?
A: no

Q: Decide: is the reported value of pIC50 for Cc1cc(-c2cnc3ccn(CC(=O)N4CC(O)C4)c3c2)ccc1F equal to or greater than 7?
A: no

Q: Decide: is the reported value of pIC50 for Fc1ccc(-c2cnc3ccn(Cc4cncnc4)c3c2)cc1F equal to or greater than 7?
A: no

Q: Decide: is the reported value of pIC50 for Cc1cc(Cn2ccc3ncc(-c4ccc(F)c(C)c4)cc32)no1 [Example 63, trifluoroacetate salt] equal to or greater than 7?
A: no

Q: Decide: is the reported value of pIC50 for O=C(Cn1cc(F)c2ncc(-c3ccc(Cl)s3)cc21)N1CCC1 equal to or greater than 7?
A: no

Q: Decide: is the reported value of pIC50 for Cc1cccc(-c2cnc3c(Cl)cn(CC(=O)C4CC4)c3c2)c1 equal to or greater than 7?
A: yes

Q: Decide: is the reported value of pIC50 for CC(C)(C)C(=O)Cn1ccc2ncc(-c3cc(F)cc(F)c3)cc21 equal to or greater than 7?
A: no

Q: Decide: is the reported value of pIC50 for O=C(Cn1cc(Cl)c2ncc(-c3ccc(F)c(F)c3F)cc21)N1CC(F)(F)C1 equal to or greater than 7?
A: yes

Q: Decide: is the reported value of pIC50 for O=C(Cn1cc(Cl)c2ncc(-c3ccccc3)cc21)NC1CC1 equal to or greater than 7?
A: no
